system: 857933-349-R-J2-PDC complex spheroid viability; test: Anticancer human tumor 857933-349-R-J2-PDC patient-derived colon adenocarcinoma cell line growth inhibition [POLQ]; settings: second compound 0.316 µM; first compound 0.01 µM; stronger effect = lower value
Hi there, I'd appreciate the recorded viability, T/C for every entry that follows.
Dear colleague, please return just the value in %, with no unit written.

In: If you can, please state the reported viability, T/C value of COc1cccc(OCCCN)c1-c1cc(Nc2cnc(C#N)cn2)n[nH]1 + Cc1cccc(N(C)C(=O)C2C(O)CCN2c2nc(C)cc(C(F)(F)F)c2C#N)c1 .
Out: 99.8

In: If you can, please state the reported viability, T/C value of COc1cccc(OCCCN)c1-c1cc(Nc2cnc(C#N)cn2)n[nH]1 + Nc1ccc(C#CCN(C(=O)Cc2ncc(C(F)(F)F)cc2C(F)(F)F)c2ccc(F)cc2)nn1 .
Out: 101

In: If you can, please state the reported viability, T/C value of Cn1ncnc1[C@H]1c2n[nH]c(=O)c3cc(F)cc(c23)N[C@@H]1c1ccc(F)cc1 + Cc1cccc(N(C)C(=O)C2C(O)CCN2c2nc(C)cc(C(F)(F)F)c2C#N)c1 .
Out: 86.2

In: If you can, please state the reported viability, T/C value of Cn1ncnc1[C@H]1c2n[nH]c(=O)c3cc(F)cc(c23)N[C@@H]1c1ccc(F)cc1 + Nc1ccc(C#CCN(C(=O)Cc2ncc(C(F)(F)F)cc2C(F)(F)F)c2ccc(F)cc2)nn1 .
Out: 105

In: If you can, please state the reported viability, T/C value of CC[C@@]1(O)C(=O)OCc2c1cc1n(c2=O)Cc2cc3c(CN(C)C)c(O)ccc3nc2-1 + Nc1ccc(C#CCN(C(=O)Cc2ncc(C(F)(F)F)cc2C(F)(F)F)c2ccc(F)cc2)nn1 .
Out: 87

In: If you can, please state the reported viability, T/C value of CCc1c2c(nc3ccc(O)cc13)-c1cc3c(c(=O)n1C2)COC(=O)[C@]3(O)CC + Cc1cccc(N(C)C(=O)C2C(O)CCN2c2nc(C)cc(C(F)(F)F)c2C#N)c1 .
Out: 59.5

In: If you can, please state the reported viability, T/C value of C=CCn1c(=O)c2cnc(Nc3ccc(N4CCN(C)CC4)cc3)nc2n1-c1cccc(C(C)(C)O)n1 + Nc1ccc(C#CCN(C(=O)Cc2ncc(C(F)(F)F)cc2C(F)(F)F)c2ccc(F)cc2)nn1 .
Out: 95.8

In: If you can, please state the reported viability, T/C value of C=CCn1c(=O)c2cnc(Nc3ccc(N4CCN(C)CC4)cc3)nc2n1-c1cccc(C(C)(C)O)n1 + Cc1cccc(N(C)C(=O)C2C(O)CCN2c2nc(C)cc(C(F)(F)F)c2C#N)c1 .
Out: 97.2

====

tested on: 857933-349-R-J2-PDC complex spheroid viability; assay: Anticancer human tumor 857933-349-R-J2-PDC cell line growth inhibition [POLQ]; conditions: second compound 10 µM; first compound 0.01 µM; stronger effect = lower value;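 note: spheroids exposed to compounds for seven days before readout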
observation.type: viability, T/C (%)
Dear colleague, please return just the value in %, with no unit written.

In: If you can, please state the reported viability, T/C value of COc1cccc(OCCCN)c1-c1cc(Nc2cnc(C#N)cn2)n[nH]1 + COC1C(OC(N)=O)C(O)C(Oc2ccc3c(O)c(NC(=O)c4ccc(O)c(CC=C(C)C)c4)c(=O)oc3c2C)OC1(C)C .
Out: 77.7

In: If you can, please state the reported viability, T/C value of C=CCn1c(=O)c2cnc(Nc3ccc(N4CCN(C)CC4)cc3)nc2n1-c1cccc(C(C)(C)O)n1 + Cc1cccc(N(C)C(=O)C2C(O)CCN2c2nc(C)cc(C(F)(F)F)c2C#N)c1 .
Out: 111

In: If you can, please state the reported viability, T/C value of Cn1ncnc1[C@H]1c2n[nH]c(=O)c3cc(F)cc(c23)N[C@@H]1c1ccc(F)cc1 + Cc1cccc(N(C)C(=O)C2C(O)CCN2c2nc(C)cc(C(F)(F)F)c2C#N)c1 .
Out: 112

In: If you can, please state the reported viability, T/C value of Cn1ncnc1[C@H]1c2n[nH]c(=O)c3cc(F)cc(c23)N[C@@H]1c1ccc(F)cc1 + COC1C(OC(N)=O)C(O)C(Oc2ccc3c(O)c(NC(=O)c4ccc(O)c(CC=C(C)C)c4)c(=O)oc3c2C)OC1(C)C .
Out: 76.2

In: If you can, please state the reported viability, T/C value of COc1cccc(OCCCN)c1-c1cc(Nc2cnc(C#N)cn2)n[nH]1 + Nc1ccc(C#CCN(C(=O)Cc2ncc(C(F)(F)F)cc2C(F)(F)F)c2ccc(F)cc2)nn1 .
Out: 102

In: If you can, please state the reported viability, T/C value of C=CCn1c(=O)c2cnc(Nc3ccc(N4CCN(C)CC4)cc3)nc2n1-c1cccc(C(C)(C)O)n1 + Nc1ccc(C#CCN(C(=O)Cc2ncc(C(F)(F)F)cc2C(F)(F)F)c2ccc(F)cc2)nn1 .
Out: 106

====

system: 857933-349-R-J2-PDC complex spheroid viability; assay: Anticancer human tumor 857933-349-R-J2-PDC cell line growth inhibition [POLQ]; details: second compound 0.0316 µM; first compound 0.1 µM; stronger effect = lower value;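 note: spheroids exposed to compounds for seven days before readout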
observation.type: viability, T/C (%)
Dear colleague, please return just the value in %, with no unit written.

In: If you can, please state the reported viability, T/C value of Cn1ncnc1[C@H]1c2n[nH]c(=O)c3cc(F)cc(c23)N[C@@H]1c1ccc(F)cc1 + Nc1ccc(C#CCN(C(=O)Cc2ncc(C(F)(F)F)cc2C(F)(F)F)c2ccc(F)cc2)nn1 .
Out: 85.1

In: If you can, please state the reported viability, T/C value of Cn1ncnc1[C@H]1c2n[nH]c(=O)c3cc(F)cc(c23)N[C@@H]1c1ccc(F)cc1 + Cc1cccc(N(C)C(=O)C2C(O)CCN2c2nc(C)cc(C(F)(F)F)c2C#N)c1 .
Out: 97.3

In: If you can, please state the reported viability, T/C value of O=C(Nc1ccc(O)c(NS(=O)(=O)c2ccc(F)cc2)c1)c1ccc(-c2ccccc2)cc1 + Cc1cccc(N(C)C(=O)C2C(O)CCN2c2nc(C)cc(C(F)(F)F)c2C#N)c1 .
Out: 85.2

In: If you can, please state the reported viability, T/C value of CC1COCCN1c1cc(C2(O)CC3CCC(C2)O3)c2cnn(-c3ccn[nH]3)c2n1 (centres undefined) + COC1C(OC(N)=O)C(O)C(Oc2ccc3c(O)c(NC(=O)c4ccc(O)c(CC=C(C)C)c4)c(=O)oc3c2C)OC1(C)C .
Out: 61.5

In: If you can, please state the reported viability, T/C value of COc1cc(C2c3cc4c(cc3C(OC3OC5COC(C)OC5C(O)C3O)C3COC(=O)C23)OCO4)cc(OC)c1O (centres undefined) + COC1C(OC(N)=O)C(O)C(Oc2ccc3c(O)c(NC(=O)c4ccc(O)c(CC=C(C)C)c4)c(=O)oc3c2C)OC1(C)C .
Out: 88.3

In: If you can, please state the reported viability, T/C value of C#Cc1c(F)ccc2cc(O)cc(-c3ncc4c(N5CC6CCC(C5)N6)nc(OCC56CCCN5CC(F)C6)nc4c3F)c12 (centres undefined) + Cc1cccc(N(C)C(=O)C2C(O)CCN2c2nc(C)cc(C(F)(F)F)c2C#N)c1 .
Out: 105

In: If you can, please state the reported viability, T/C value of CC[C@@]1(O)C(=O)OCc2c1cc1n(c2=O)Cc2cc3c(CN(C)C)c(O)ccc3nc2-1 + Nc1ccc(C#CCN(C(=O)Cc2ncc(C(F)(F)F)cc2C(F)(F)F)c2ccc(F)cc2)nn1 .
Out: 44

In: If you can, please state the reported viability, T/C value of CNCc1ccc(-c2[nH]c3cc(F)cc4c3c2CCNC4=O)cc1 + Nc1ccc(C#CCN(C(=O)Cc2ncc(C(F)(F)F)cc2C(F)(F)F)c2ccc(F)cc2)nn1 .
Out: 101

In: If you can, please state the reported viability, T/C value of COc1cccc2c1C(=O)c1c(O)c3c(c(O)c1C2=O)CC(O)(C(=O)CO)CC3OC1CC(N)C(O)C(C)O1 (centres undefined) + Cc1cccc(N(C)C(=O)C2C(O)CCN2c2nc(C)cc(C(F)(F)F)c2C#N)c1 .
Out: 62.2

====

system: 857933-349-R-J2-PDC complex spheroid viability; assay: Anticancer human tumor 857933-349-R-J2-PDC cell line growth inhibition [POLQ]; details: second compound 0.0316 µM; first compound 0.0316 µM; stronger effect = lower value;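 note: spheroids exposed to compounds for seven days before readout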
observation.type: viability, T/C (%)
Dear colleague, please return just the value in %, with no unit written.

In: If you can, please state the reported viability, T/C value of CCCS(=O)(=O)Nc1ccc(F)c(C(=O)c2c[nH]c3ncc(-c4ccc(Cl)cc4)cc23)c1F + COC1C(OC(N)=O)C(O)C(Oc2ccc3c(O)c(NC(=O)c4ccc(O)c(CC=C(C)C)c4)c(=O)oc3c2C)OC1(C)C .
Out: 73.7

In: If you can, please state the reported viability, T/C value of COc1ccc([C@@H](O)c2cc(-c3ncnc4cc(N5CCOCC5)ccc34)c(F)cc2Cl)nn1 + Nc1ccc(C#CCN(C(=O)Cc2ncc(C(F)(F)F)cc2C(F)(F)F)c2ccc(F)cc2)nn1 .
Out: 86.3

In: If you can, please state the reported viability, T/C value of CNCc1ccc(-c2[nH]c3cc(F)cc4c3c2CCNC4=O)cc1 + Nc1ccc(C#CCN(C(=O)Cc2ncc(C(F)(F)F)cc2C(F)(F)F)c2ccc(F)cc2)nn1 .
Out: 91.7

In: If you can, please state the reported viability, T/C value of Nc1ccn(C2OC(CO)C(O)C2(F)F)c(=O)n1 (stereo not drawn) + COC1C(OC(N)=O)C(O)C(Oc2ccc3c(O)c(NC(=O)c4ccc(O)c(CC=C(C)C)c4)c(=O)oc3c2C)OC1(C)C .
Out: 68.6

In: If you can, please state the reported viability, T/C value of CC1COCCN1c1cc(-c2ccnn2C)c2ccnc(-c3ccn[nH]3)c2n1 (stereo not drawn) + Nc1ccc(C#CCN(C(=O)Cc2ncc(C(F)(F)F)cc2C(F)(F)F)c2ccc(F)cc2)nn1 .
Out: 76.4

In: If you can, please state the reported viability, T/C value of CC[C@@]1(O)C(=O)OCc2c1cc1n(c2=O)Cc2cc3c(CN(C)C)c(O)ccc3nc2-1 + Nc1ccc(C#CCN(C(=O)Cc2ncc(C(F)(F)F)cc2C(F)(F)F)c2ccc(F)cc2)nn1 .
Out: 66.2

In: If you can, please state the reported viability, T/C value of COc1ccc([C@@H](O)c2cc(-c3ncnc4cc(N5CCOCC5)ccc34)c(F)cc2Cl)nn1 + COC1C(OC(N)=O)C(O)C(Oc2ccc3c(O)c(NC(=O)c4ccc(O)c(CC=C(C)C)c4)c(=O)oc3c2C)OC1(C)C .
Out: 114

In: If you can, please state the reported viability, T/C value of Nc1ccn(C2OC(CO)C(O)C2(F)F)c(=O)n1 (stereo not drawn) + Nc1ccc(C#CCN(C(=O)Cc2ncc(C(F)(F)F)cc2C(F)(F)F)c2ccc(F)cc2)nn1 .
Out: 74.7

In: If you can, please state the reported viability, T/C value of COc1cccc(OCCCN)c1-c1cc(Nc2cnc(C#N)cn2)n[nH]1 + COC1C(OC(N)=O)C(O)C(Oc2ccc3c(O)c(NC(=O)c4ccc(O)c(CC=C(C)C)c4)c(=O)oc3c2C)OC1(C)C .
Out: 61.3

In: If you can, please state the reported viability, T/C value of COc1cccc2c1C(=O)c1c(O)c3c(c(O)c1C2=O)CC(O)(C(=O)CO)CC3OC1CC(N)C(O)C(C)O1 (stereo not drawn) + Cc1cccc(N(C)C(=O)C2C(O)CCN2c2nc(C)cc(C(F)(F)F)c2C#N)c1 .
Out: 86.9

In: If you can, please state the reported viability, T/C value of CC1COCCN1c1cc(C2(S(C)(=N)=O)CC2)nc(-c2ccnc3[nH]ccc23)n1 (stereo not drawn) + Cc1cccc(N(C)C(=O)C2C(O)CCN2c2nc(C)cc(C(F)(F)F)c2C#N)c1 .
Out: 97.9

In: If you can, please state the reported viability, T/C value of O=c1[nH]cc(F)c(=O)[nH]1 + Nc1ccc(C#CCN(C(=O)Cc2ncc(C(F)(F)F)cc2C(F)(F)F)c2ccc(F)cc2)nn1 .
Out: 101

In: If you can, please state the reported viability, T/C value of C=CC(=O)N1CCN(c2nc(=O)n(-c3c(C)ccnc3C(C)C)c3nc(-c4c(O)cccc4F)c(F)cc23)C(C)C1 (stereo not drawn) + Cc1cccc(N(C)C(=O)C2C(O)CCN2c2nc(C)cc(C(F)(F)F)c2C#N)c1 .
Out: 101

In: If you can, please state the reported viability, T/C value of COc1ccc([C@@H](O)c2cc(-c3ncnc4cc(N5CCOCC5)ccc34)c(F)cc2Cl)nn1 + Cc1cccc(N(C)C(=O)C2C(O)CCN2c2nc(C)cc(C(F)(F)F)c2C#N)c1 .
Out: 118

In: If you can, please state the reported viability, T/C value of CCc1cc2c(N3CCc4c(cc(Cn5ccnc5)cc4-c4cn(C)nc4C(F)(F)F)C3=O)ccnc2c(OC)n1 + COC1C(OC(N)=O)C(O)C(Oc2ccc3c(O)c(NC(=O)c4ccc(O)c(CC=C(C)C)c4)c(=O)oc3c2C)OC1(C)C .
Out: 88.9

In: If you can, please state the reported viability, T/C value of CCc1c2c(nc3ccc(O)cc13)-c1cc3c(c(=O)n1C2)COC(=O)[C@]3(O)CC + COC1C(OC(N)=O)C(O)C(Oc2ccc3c(O)c(NC(=O)c4ccc(O)c(CC=C(C)C)c4)c(=O)oc3c2C)OC1(C)C .
Out: 32.1

In: If you can, please state the reported viability, T/C value of Nc1ccn(C2OC(CO)C(O)C2(F)F)c(=O)n1 (stereo not drawn) + Cc1cccc(N(C)C(=O)C2C(O)CCN2c2nc(C)cc(C(F)(F)F)c2C#N)c1 .
Out: 81.5

In: If you can, please state the reported viability, T/C value of CCCS(=O)(=O)Nc1ccc(F)c(C(=O)c2c[nH]c3ncc(-c4ccc(Cl)cc4)cc23)c1F + Cc1cccc(N(C)C(=O)C2C(O)CCN2c2nc(C)cc(C(F)(F)F)c2C#N)c1 .
Out: 87.7
